Listed next: entries and their corresponding inhibition at 3 µM.
target: human neuropeptide Y5 receptor (Homo sapiens); construct: expressed in transfected cells; test: NPY5 HTS Centrifugation Assay: competition with 125I-PYY for binding to NPY5-transfected HEK293 cell membranes; conditions: 80 pM 125I-PYY, 1 hr room temperature, read-out: % Inh @ 3 uM (% Inhibition of ^125 I-PYY Binding)
Response body: numeric value in %, unit text excluded.

Observe how each entry below is paired with its result.
[
  {
    "MOLECULE": "COc1ccc2c(c1)CC[C@H](NC[C@H]1CC[C@H](CNS(=O)(=O)c3ccc4ccccc4c3)CC1)[C@@H]2Cc1ccccc1 (relative stereo)",
    "ASSAYED_SYSTEM": "human neuropeptide Y5 receptor (Homo sapiens)",
    "READOUT_LABEL": "inhibition at 3 µM",
    "VALUE_MEASURED": 96
  },
  {
    "MOLECULE": "COc1ccc2c(c1)CCC(NC[C@H]1CC[C@H](CNS(=O)(=O)c3ccc(Br)cc3)CC1)C2Cc1ccccc1 (stereo partly drawn)",
    "ASSAYED_SYSTEM": "human neuropeptide Y5 receptor (Homo sapiens)",
    "READOUT_LABEL": "inhibition at 3 µM",
    "VALUE_MEASURED": 95
  },
  {
    "MOLECULE": "O=S(=O)(NC[C@H]1CC[C@H](CNC2CCc3cc(O)ccc3C2Cc2ccccc2)CC1)c1ccccc1 (stereo partly drawn)",
    "ASSAYED_SYSTEM": "human neuropeptide Y5 receptor (Homo sapiens)",
    "READOUT_LABEL": "inhibition at 3 µM",
    "VALUE_MEASURED": 102
  },
  {
    "MOLECULE": "COc1ccc2c(c1)CCC(NC[C@H]1CC[C@H](CNS(=O)(=O)c3ccc(F)cc3)CC1)C2Cc1ccccc1 (relative stereo)",
    "ASSAYED_SYSTEM": "human neuropeptide Y5 receptor (Homo sapiens)",
    "READOUT_LABEL": "inhibition at 3 µM",
    "VALUE_MEASURED": 91
  },
  {
    "MOLECULE": "COc1ccc2c(c1)CCC(NC[C@H]1CC[C@H](CNS(=O)(=O)c3ccccc3)CC1)C2Cc1ccc2ccccc2c1 (relative stereo)",
    "ASSAYED_SYSTEM": "human neuropeptide Y5 receptor (Homo sapiens)",
    "READOUT_LABEL": "inhibition at 3 µM",
    "VALUE_MEASURED": 89
  }
]

Next:
Look up inhibition at 3 µM: O=[N+]([O-])c1ccccc1S(=O)(=O)NC[C@H]1CC[C@H](CNC2CCc3cc(Cl)ccc3C2Cc2ccccc2)CC1 (stereo partly drawn)
93

====

inhibition at 3 µM by entry:
Target: human neuropeptide Y5 receptor (Homo sapiens)
Construct: expressed in transfected cells
Sequence (Q15761 1-445): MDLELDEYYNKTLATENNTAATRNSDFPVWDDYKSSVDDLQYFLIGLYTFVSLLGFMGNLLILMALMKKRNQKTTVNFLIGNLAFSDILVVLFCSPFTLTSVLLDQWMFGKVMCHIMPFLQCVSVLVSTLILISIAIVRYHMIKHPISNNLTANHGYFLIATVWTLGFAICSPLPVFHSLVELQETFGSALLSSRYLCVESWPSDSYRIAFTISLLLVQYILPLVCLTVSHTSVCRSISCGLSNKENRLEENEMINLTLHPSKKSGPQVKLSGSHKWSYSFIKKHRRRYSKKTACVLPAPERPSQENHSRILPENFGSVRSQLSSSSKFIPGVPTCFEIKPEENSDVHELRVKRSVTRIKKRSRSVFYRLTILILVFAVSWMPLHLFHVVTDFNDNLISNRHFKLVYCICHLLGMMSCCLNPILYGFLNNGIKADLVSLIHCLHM
Assay: NPY5 HTS Centrifugation Assay: competition with 125I-PYY for binding to NPY5-transfected HEK293 cell membranes
Details: 80 pM 125I-PYY, 1 hr room temperature, read-out: % Inh @ 3 uM (% Inhibition of ^125 I-PYY Binding)
Experimental: The compounds described in this invention were evaluated for binding to the human neuropeptide Y5 receptor. […] A competition binding assay, known to those skilled in the art, was used in which aminotetralins (I) compete with ^125 I-PYY for binding to cell membranes. […] Bound ^125 I-PYY is determined by centrifugation of membranes, aspirating supernatant, washing away residual ^125 I-PYY and subsequently counting the bound sample in a g-counter. […]
# output: bare number, implied unit %

// solved cases for inhibition at 3 µM follow
[
  {
    "COMPOUND": "COc1ccc2c(c1)CC[C@H](NC[C@H]1CC[C@H](CNS(=O)(=O)c3ccc4ccccc4c3)CC1)[C@@H]2Cc1cccnc1 (relative stereo)",
    "READOUT_LABEL": "inhibition at 3 µM",
    "VALUE_MEASURED": 96
  },
  {
    "COMPOUND": "COc1ccc2c(c1)CCC(NC[C@H]1CC[C@H](CNS(=O)(=O)c3ccccc3)CC1)C2Cc1ccc(Cl)cc1 (relative stereo)",
    "READOUT_LABEL": "inhibition at 3 µM",
    "VALUE_MEASURED": 90
  },
  {
    "COMPOUND": "COc1ccc2c(c1)CCC(NC1CCC(NS(=O)(=O)c3ccc4ccccc4c3)CC1)C2Cc1ccccc1 (stereo not shown)",
    "READOUT_LABEL": "inhibition at 3 µM",
    "VALUE_MEASURED": 44
  }
]

Endpoint output: inhibition at 3 µM of COc1ccc2c(c1)CCC(NCCCCCCCCNS(=O)(=O)c1ccc3ccccc3c1)C2Cc1ccccc1 (stereo not shown) . Value?
68

Report inhibition at 3 µM for O=S(=O)(NCCCCNC1CCc2ccccc2C1Cc1ccccc1)c1ccc2ccccc2c1 (stereo not shown) please.
58

What does the record list as inhibition at 3 µM for O=S(=O)(NC[C@H]1CC[C@H](CNC2CCc3cc(F)ccc3C2Cc2ccccc2)CC1)c1ccccc1Cl (relative stereo) ?
107

Give the measured inhibition at 3 µM of O=S(=O)(NC[C@H]1CC[C@H](CNC2CCc3ccc(Cl)cc3C2Cc2ccccc2)CC1)c1ccccc1 (stereo partly shown) .
97

====

In this section we review reported inhibition at 3 µM values for a set of molecules.
Molecular target: human neuropeptide Y5 receptor (Homo sapiens, UniProt Q15761)
Construct: expressed in transfected cells
Sequence (Q15761 1-445): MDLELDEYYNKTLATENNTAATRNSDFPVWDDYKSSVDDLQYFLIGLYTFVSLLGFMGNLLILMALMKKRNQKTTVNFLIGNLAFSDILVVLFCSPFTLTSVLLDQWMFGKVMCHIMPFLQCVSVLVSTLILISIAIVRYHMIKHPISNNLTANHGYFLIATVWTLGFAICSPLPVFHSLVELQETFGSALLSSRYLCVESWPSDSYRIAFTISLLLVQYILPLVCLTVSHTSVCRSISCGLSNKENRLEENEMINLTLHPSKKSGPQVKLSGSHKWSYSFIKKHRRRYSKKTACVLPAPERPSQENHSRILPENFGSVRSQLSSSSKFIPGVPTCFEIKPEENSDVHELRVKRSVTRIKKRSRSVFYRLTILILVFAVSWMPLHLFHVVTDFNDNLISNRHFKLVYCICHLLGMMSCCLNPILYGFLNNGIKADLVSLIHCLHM
Assay: NPY5 HTS Centrifugation Assay: competition with 125I-PYY for binding to NPY5-transfected HEK293 cell membranes
Details: 80 pM 125I-PYY, 1 hr room temperature, read-out: % Inh @ 3 uM (% Inhibition of ^125 I-PYY Binding)
Respond with the bare value in %.

[
  {
    "MOLECULE": "O=S(=O)(NCCCCCN[C@H]1CCc2ccccc2[C@H]1Cc1ccccc1)c1ccc2ccccc2c1 (relative stereo) [Compound 46]",
    "READOUT_LABEL": "inhibition at 3 µM",
    "VALUE_MEASURED": 89
  }
]

What does the record list as inhibition at 3 µM for COc1cccc(CC2c3ccc(OC)cc3CCC2NC[C@H]2CC[C@H](CNS(=O)(=O)c3ccc4ccccc4c3)CC2)c1 (stereo partly drawn) [Compound 84] ?
82

Endpoint output: inhibition at 3 µM of COc1ccc2c(c1)CCC(NC[C@H]1CC[C@H](CNS(=O)(=O)c3ccccc3[N+](=O)[O-])CC1)C2Cc1c(F)cccc1F (relative stereo) [Compound 90] . Value?
97

Consider the molecule COc1ccc2c(c1)CCC(NC[C@H]1CC[C@H](CNS(=O)(=O)c3cccc(F)c3)CC1)C2Cc1ccccc1 (stereo partly drawn) [Compound 60] and give its measured inhibition at 3 µM.
94

Quick one: inhibition at 3 µM for O=S(=O)(NC[C@H]1CC[C@H](CNC2CCc3cc(F)ccc3C2Cc2ccccc2)CC1)c1c(Cl)cccc1Cl (stereo partly drawn) [Compound 77] ?
102

Quick one: inhibition at 3 µM for COc1ccc2c(c1)CC[C@H](NC[C@H]1CC[C@H](CNS(=O)(=O)c3ccc4ccccc4c3)CC1)[C@@H]2c1ccccc1 (relative stereo) [Compound 34] ?
46
